Measured Kinetic_solubility by item
Assay: Kinetic solubility of the compound in pH 7.4 solution at 10 to 220 uM after 2 hrs by shake flask method
Assay type: physicochemical
Conditions: buffer, pH 7.4, 2 h, 220 µM
Write the value in µM as a bare number.

- molecule: "CN(C)CCOc1ccc(NC(=O)c2cc(N(C)Cc3ccc(F)cc3)ncn2)cc1"
  Kinetic_solubility (µM): 155

Exercise: Quick one: Kinetic_solubility of CN(Cc1ccc(F)cc1)c1cc(C(=O)Nc2ccccc2)cnn1 ?
Solution: 40

###

Test system: Vero
Test: Cytotoxicity against African green monkey Vero cells assessed as reduction in cell viability by MTT assay
Format: cell-based
Conditions: Chlorocebus sabaeus
Measured IC50 by item
Write the value in µM as a bare number.

- molecule: "CN(Cc1ccc(F)cc1)c1cc(C(=O)Nc2ccccc2)ncn1"
  IC50 [µM]: 297
- molecule: "CN(Cc1ccc(F)cc1)c1cc(C(=O)Nc2ccccc2)cnn1"
  IC50 [µM]: 279
- molecule: "CN1CCN(c2ccc(NC(=O)c3cc(N(C)Cc4ccc(C(F)(F)F)cc4)ncn3)cc2)CC1"
  IC50 [µM]: 161
- molecule: "CC(C)Oc1ccc(NC(=O)c2cc(N(C)Cc3ccc(F)cc3)ncn2)cc1"
  IC50 [µM]: 254
- molecule: "CN(Cc1ccc(F)cc1)c1cc(-c2nnc(-c3ccccc3)[nH]2)ncn1"
  IC50 [µM]: 277
- molecule: "CC(C)NC(=O)c1cc(N(C)Cc2ccc(C(F)(F)F)cc2)ncn1"
  IC50 [µM]: 217

Now, please, on to the next compound.
Exercise: Quick one: IC50 of CN(Cc1ccc(C(F)(F)F)cc1)c1cc(C(=O)Nc2ncn(C)n2)ncn1 ?
Solution: 28

###

Test system: Mus musculus
Test: Volume of distribution in C57/BL6 mouse at 5 mg/kg, iv measured up to 24 hrs post dose by LC-MS/MS analysis
Format: ADME, organism-based
Settings: in vivo
Binary label based on Vd with cut-off 4 L/kg: below gives met, not below gives not met.

Please review the entries below; each comes with its answer.
- molecule: "CN1CCN(c2ccc(NC(=O)c3cc(N(C)Cc4ccc(C(F)(F)F)cc4)ncn3)cc2)CC1"
  label: "not met"
- molecule: "CN(Cc1ccc(C(F)(F)F)cc1)c1cc(C(=O)Nc2ccccc2)ncn1"
  label: "not met"
- molecule: "CN(Cc1ccc(C(F)(F)F)nc1)c1cc(C(=O)Nc2ccccc2)ncn1"
  label: "met"
- molecule: "CN(Cc1ccc(C(F)(F)F)nc1)c1cc(C(=O)Nc2nncs2)ncn1"
  label: "met"

Attention now shifts to the item below.
Exercise: I wonder whether CN(Cc1ccc(F)cc1)c1cc(C(=O)Nc2nncs2)ncn1 has Vd below 4 L/kg. Can you tell?
Solution: not met

###

System: Mus musculus
Test: Apparent elimination half life in C57/BL6 mouse at 5 mg/kg, iv measured up to 24 hrs post dose by LC-MS/MS analysis
Type: ADME, organism-based
Conditions: in vivo
test-readout: betat1/2(app) (h)
Write the value in h as a bare number.

Exercise: Quick one: betat1/2(app) of CN(Cc1ccc(C(F)(F)F)nc1)c1cc(C(=O)Nc2nncs2)ncn1 ?
Solution: 3

Exercise: Please do the same for CN(Cc1ccc(F)cc1)c1cc(C(=O)Nc2nncs2)ncn1 as well.
Solution: 5.1

###

Tested on: Mus musculus
Assay: AUC (0 to infinity) in C57/BL6 mouse at 5 mg/kg, iv measured up to 24 hrs post dose by LC-MS/MS analysis
Type: ADME, organism-based
Parameters: dose 5 mg/kg, route intravenous, time infinity
Details: in vivo
test-readout: AUC (µM·min)
Write the value in µM·min as a bare number.

- molecule: "CN(Cc1ccc(C(F)(F)F)cc1)c1cc(C(=O)Nc2ccccc2)ncn1"
  reported-value: 1224
- molecule: "CN(Cc1ccc(F)cc1)c1cc(C(=O)Nc2nncs2)ncn1"
  reported-value: 1329
- molecule: "CN1CCN(c2ccc(NC(=O)c3cc(N(C)Cc4ccc(C(F)(F)F)cc4)ncn3)cc2)CC1"
  reported-value: 540
- molecule: "CN(Cc1ccc(C(F)(F)F)nc1)c1cc(C(=O)Nc2ccccc2)ncn1"
  reported-value: 1179

Now, please, on to the next molecule.
Exercise: Quick one: AUC of CN(Cc1ccc(C(F)(F)F)nc1)c1cc(C(=O)Nc2nncs2)ncn1 ?
Solution: 2106

###

Test system: Mycobacterium tuberculosis
Experiment: Antibacterial activity against Mycobacterium tuberculosis […] SAWC3933 grown in middlebrook 7H9 medium measured on day 7 and 14 by MABA assay
Type: functional
Conditions: 168 h
Measured MIC90 by item
Write the value in µM as a bare number.

- molecule: "CN(Cc1ccc(F)cc1)c1cc(C(=O)Nc2nncs2)ncn1"
  MIC90, µM: 0.625

Now, please, on to the next molecule.
Exercise: Quick one: MIC90 of CC(C)Oc1ccc(NC(=O)c2cc(N(C)Cc3ccc(F)cc3)ncn2)cc1 ?
Solution: 2.5

###

System: Liver
Assay: Metabolic stability in human liver microsomes assessed as compound remaining at 0.1 uM after 30 mins by LC-MS/MS analysis
Type: ADME, microsome
Settings: 0.5 h
Binary label based on Stability with cut-off 60%: below gives y, not below gives n.

Please review the entries below; each comes with its answer.
- molecule: "CN(Cc1ccc(C(F)(F)F)cc1)c1cc(C(=O)Nc2ccccc2)ncn1"
  label: "y"
- molecule: "CC(C)Oc1ccc(NC(=O)c2cc(N(C)Cc3ccc(F)cc3)ncn2)cc1"
  label: "n"
- molecule: "CN(Cc1ccc(F)cc1)c1cc(C(=O)Nc2nncs2)ncn1"
  label: "n"
- molecule: "CN1CCN(c2ccc(NC(=O)c3cc(N(C)Cc4ccc(C(F)(F)F)cc4)ncn3)cc2)CC1"
  label: "y"
- molecule: "CN(Cc1ccc(C(F)(F)F)nc1)c1cc(C(=O)Nc2ccccc2)ncn1"
  label: "n"

Attention now shifts to the item below.
Exercise: I wonder whether CN(Cc1ccc(C(F)(F)F)nc1)c1cc(C(=O)Nc2nncs2)ncn1 has Stability below 60%. Can you tell?
Solution: n

###

System: Mycobacterium tuberculosis
Assay: Antibacterial activity against Mycobacterium tuberculosis H37RvMA grown in 7H9/ADC medium measured 7 to 14 days post inoculation by broth microdilution method
Format: functional
test-readout: log10 MIC99 (log10 of the value in µM)
Remember, log10 of MIC99, in µM.

The examples below pair each entry with its known result.
- molecule: "CN(C)CCOc1ccc(NC(=O)c2cc(N(C)Cc3ccc(F)cc3)ncn2)cc1"
  experimental-system: "Mycobacterium tuberculosis"
  reported-value: 1.40
- molecule: "CN(Cc1ccc(C(F)(F)F)cc1)c1cc(C(=O)Nc2ccccc2)ncn1"
  experimental-system: "Mycobacterium tuberculosis"
  reported-value: 0.70
- molecule: "CN(Cc1ccc(C(F)(F)F)nc1)c1cc(C(=O)Nc2ccccc2)ncn1"
  experimental-system: "Mycobacterium tuberculosis"
  reported-value: 1.57

Exercise: Quick one: log10 MIC99 of CN(Cc1ccc(C(F)(F)F)cc1)c1cc(C(=O)Nc2ncn(C)n2)ncn1 ?
Solution: 1.70

Exercise: Please do the same for CN(Cc1ccc(Cl)cc1)c1cc(C(=O)Nc2ccccc2)ncn1 as well.
Solution: 0.70

Exercise: Please do the same for CN1CCN(c2ccc(NC(=O)c3cc(N(C)Cc4ccc(C(F)(F)F)cc4)ncn3)cc2)CC1 as well.
Solution: 0.50

###

System: Mycobacterium tuberculosis
Assay: Antibacterial activity against wild type Mycobacterium tuberculosis H37Rv grown in GAST/Fe medium measured on day 14 post inoculation by broth microdilution method
Assay type: functional
Conditions: 336 h
Measured MIC99 by item
Write the value in µM as a bare number.

- molecule: "CN(Cc1ccc(F)cc1)c1cc(C(=O)Nc2ccccc2)ncn1"
  result-units: "µM"
  MIC99: 10
- molecule: "CN(Cc1ccc(F)cc1)c1cc(C(=O)Nc2nncs2)ncn1"
  result-units: "µM"
  MIC99: 5
- molecule: "C[C@H]1COc2c(N3CCN(C)CC3)c(F)cc3c(=O)c(C(=O)O)cn1c23"
  result-units: "µM"
  MIC99: 0.64

Now, please, on to the next compound.
Exercise: Quick one: MIC99 of NNC(=O)c1ccncc1 ?
Solution: 0.18

###

Test system: Mycobacterium tuberculosis
Test: Antibacterial activity against Mycobacterium tuberculosis H37RvMA grown in 7H9/ADC medium measured 7 to 14 days post inoculation by broth microdilution method
Format: functional
test-readout: log10 MIC99 (log10 of the value in µM)
Remember, log10 of MIC99, in µM.

The examples below pair each entry with its known result.
- molecule: "Cc1csc(NC(=O)c2cc(N(C)Cc3ccc(F)cc3)ncn2)n1"
  reported-value: 1.57
- molecule: "CN(Cc1ccc(C(F)(F)F)nc1)c1cc(C(=O)Nc2ccc(N3CCOCC3)cn2)ncn1"
  reported-value: 0.50
- molecule: "CN(Cc1ccc(F)cc1)c1cc(C(=O)Nc2nncs2)ncn1"
  reported-value: 1.10

Exercise: Quick one: log10 MIC99 of CN(Cc1ccc(F)cc1)c1cc(C(=O)Nc2ccc(N3CCOCC3)cc2)ncn1 ?
Solution: -0.11

Exercise: Please do the same for CN(Cc1cccc(Cl)c1)c1cc(C(=O)Nc2ccccc2)ncn1 as well.
Solution: 1.30

Exercise: Please do the same for COc1ccc(NC(=O)c2cc(N(C)Cc3ccc(F)cc3)ncn2)cc1 as well.
Solution: 0.70

Exercise: Please do the same for CN(Cc1ccc(C(F)(F)F)nc1)c1cc(C(=O)Nc2nncs2)ncn1 as well.
Solution: 1.70

Exercise: Please do the same for CN1CCN(c2cccc(NC(=O)c3cc(N(C)Cc4ccc(F)cc4)ncn3)c2)CC1 as well.
Solution: 1.57

Exercise: Please do the same for CC(C)Oc1ccc(NC(=O)c2cc(N(C)Cc3ccc(F)cc3)ncn2)cc1 as well.
Solution: 0.70

The measured values listed here are drawn from ChEMBL document CHEMBL4028901.
